- System: OVA asthma model of rat
- methodNotes: Test using OVA asthma model of rat (airway hyperresponsiveness, infiltration of inflammatory cells, mucus-secretion)
- Format: in vivo, Brown Norway (BN) Rats
- reportedConditions: po, 72 h, BN rats, 10 mg/kg p.o. once a day for three days, total cell number in bronchoalveolar washings against control group, read-out: inhibition rate (%) infiltration of inflammatory cells
reportedMetric: inhibition in vivo at 10 mg/kg (%)
Answer in %, number only, no unit symbol.

Give me measured inhibition in vivo at 10 mg/kg, please, for this compound: CC(C)Oc1ccc(S(=O)(=O)N2CCN(c3ccc(-c4nccs4)c(OCC(=O)O)c3)CC2)cc1
46

Please report inhibition in vivo at 10 mg/kg for the following compound: CC(C)Oc1ccc(S(=O)(=O)N2CCN(c3ccc(-c4cnco4)c(OCC(=O)O)c3)CC2)cc1
54

Indicate its recorded inhibition in vivo at 10 mg/kg; the compound in question is CC(C)NC(=O)c1ccc(N2CCN(S(=O)(=O)c3ccc(OC(C)C)cc3)CC2)cc1OCC(=O)O
59

Return inhibition in vivo at 10 mg/kg for the following compound: CC(C)Oc1ccc(S(=O)(=O)N2CCN(c3cc(OCC(=O)O)cc(-c4ccoc4)c3)CC2)cc1
69

Consider the compound CC(C)Oc1ccc(S(=O)(=O)N2CCN(c3ccc(-c4ccoc4)c(OCC(=O)O)c3)CC2)cc1 . State its measured inhibition in vivo at 10 mg/kg.
39

Look up and state reported inhibition in vivo at 10 mg/kg for CC[C@@H](C)Oc1ccc(S(=O)(=O)N2CCN(c3ccc(Cl)c(OCC(=O)O)c3)CC2)cc1
60

Could you please provide reported inhibition in vivo at 10 mg/kg for CC(C)Oc1ccc(S(=O)(=O)N2CCN(c3cc(Br)cc(OCC(=O)O)c3)CC2)cc1 ? Thanks!
53

Dear colleague, please send me the reported inhibition in vivo at 10 mg/kg for CC(C)Sc1ccc(S(=O)(=O)N2CCN(c3ccc(Cl)c(OCC(=O)O)c3)CC2)cc1 when you can.
60
